Source listed as patent US20250179200A1.

Biological target: T1, Human GHR-Fc-10x His (extracellular region of human growth hormone receptor fused to human Fc) (human, UniProt P10912 50-256)
T1 construct: Captured by its 10x His-tag on a Ni-NTA sensor chip for SPR; not shown: human Fc domain of vector pAB1200 with its linker; 10x His-tag replacing the AviTag
T1 sequence (looked up): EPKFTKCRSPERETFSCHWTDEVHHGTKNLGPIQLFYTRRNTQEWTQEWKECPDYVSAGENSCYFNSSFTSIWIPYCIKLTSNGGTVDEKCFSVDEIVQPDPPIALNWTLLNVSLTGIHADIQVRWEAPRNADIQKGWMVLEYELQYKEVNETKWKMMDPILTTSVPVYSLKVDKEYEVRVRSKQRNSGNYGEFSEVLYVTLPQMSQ
Experiment: SPR, GHR-Fc-10xHis captured on Ni-NTA chip, Fab as analyte, 1:1 fit
Listed binders paired with reported koff

{"columns": ["Binder", "Unit Tag", "koff"],
 "data": [
  ["GHR3 Fab (Fab, V domains shown, Fab) VH: EVQLVESGGGLVQPGGSLRLSCAASGFNVSYYSIHWVRQAPGKGLEWVAYISPSYGSTSYADSVKGRFTISADTSKNTAYLQMNSLRAEDTAVYYCARGYWGGGYWPYHAFDYWGQGTLVTVSS VL: DIQMTQSPSSLSASVGDRVTITCRASQSVSSAVAWYQQKPGKAPKLLIYSASSLYSGVPSRFSGSRSGTDFTLTISSLQPEDFATYYCQQYYTSLLTFGQGTKVEIKR", "s⁻¹", "1.32e-06"],
  ["GHR6 Fab (Fab, V domains shown, Fab) VH: EVQLVESGGGLVQPGGSLRLSCAASGFNVYYSSIHWVRQAPGKGLEWVASIYSSYGYTSYADSVKGRFTISADTSKNTAYLQMNSLRAEDTAVYYCARGQWSGLSGYWEYKALDYWGQGTLVTVSS VL: DIQMTQSPSSLSASVGDRVTITCRASQSVSSAVAWYQQKPGKAPKLLIYSASSLYSGVPSRFSGSRSGTDFTLTISSLQPEDFATYYCQQVGGSSLITFGQGTKVEIKR", "s⁻¹", 0.000296],
  ["GHR12 Fab (Fab, V domains shown, Fab) VH: EVQLVESGGGLVQPGGSLRLSCAASGFNVSYYSIHWVRQAPGKGLEWVASIYSSYGSTYYADSVKGRFTISADTSKNTAYLQMNSLRAEDTAVYYCARGYWQGGYYRWGNGGLDYWGQGTLVTVSS VL: DIQMTQSPSSLSASVGDRVTITCRASQSVSSAVAWYQQKPGKAPKLLIYSASSLYSGVPSRFSGSRSGTDFTLTISSLQPEDFATYYCQQSYGWLITFGQGTKVEIKR", "s⁻¹", 0.000168]
]}
